- System Under Test: Ba/F3 FLT3 (ITD/D835YF691L) (Homo sapiens, UniProt P36888, F691L/D835Y, cells depend on it, form not given)
- Sequence (P36888 1-993 F691L/D835Y): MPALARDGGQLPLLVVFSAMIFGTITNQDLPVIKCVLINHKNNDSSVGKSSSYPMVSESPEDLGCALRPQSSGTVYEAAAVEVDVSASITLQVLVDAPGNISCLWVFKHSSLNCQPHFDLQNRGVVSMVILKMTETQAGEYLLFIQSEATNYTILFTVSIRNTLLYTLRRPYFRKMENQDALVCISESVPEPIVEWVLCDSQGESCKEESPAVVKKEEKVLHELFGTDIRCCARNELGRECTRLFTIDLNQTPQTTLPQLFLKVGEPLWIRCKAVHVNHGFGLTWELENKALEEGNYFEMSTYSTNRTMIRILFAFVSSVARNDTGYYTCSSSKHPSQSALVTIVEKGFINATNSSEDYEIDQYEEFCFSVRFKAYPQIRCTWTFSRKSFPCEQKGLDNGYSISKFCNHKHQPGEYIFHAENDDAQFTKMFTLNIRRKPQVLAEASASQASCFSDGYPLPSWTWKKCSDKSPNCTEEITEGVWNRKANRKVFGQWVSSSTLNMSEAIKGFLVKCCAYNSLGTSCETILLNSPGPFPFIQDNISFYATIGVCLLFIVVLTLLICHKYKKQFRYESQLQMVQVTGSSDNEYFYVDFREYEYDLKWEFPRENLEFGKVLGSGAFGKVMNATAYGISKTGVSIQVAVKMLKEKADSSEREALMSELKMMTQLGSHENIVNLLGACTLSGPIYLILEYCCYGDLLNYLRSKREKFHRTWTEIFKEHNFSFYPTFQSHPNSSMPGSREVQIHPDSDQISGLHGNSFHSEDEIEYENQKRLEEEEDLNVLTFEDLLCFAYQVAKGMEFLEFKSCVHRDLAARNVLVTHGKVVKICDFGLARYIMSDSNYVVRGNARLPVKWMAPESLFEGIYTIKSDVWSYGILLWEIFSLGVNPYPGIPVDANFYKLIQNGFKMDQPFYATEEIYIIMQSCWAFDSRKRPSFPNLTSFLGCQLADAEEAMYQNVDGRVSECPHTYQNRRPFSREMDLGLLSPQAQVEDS
- Assay Remarks: Ba/F3 cell growth inhibition (CellTiter-Glo, 72 hours)
- Type: cell-based
- Measurement Setup: read-out: Ba/F3 GI50s (μM) FLT3 (ITD/D835YF691L)
- Protocol: Seeding 3000 cells per well in a 96-well plate. After cell stabilization, treat the cells with compounds diluted in […] at a ⅓ serial dilution and culture for 72 hours. Following treatment with CellTiter-Glo, luminescence is produced only in the presence of ATP, as luciferase degrades luciferin. Luminescence values were measured using Envision (PerkinElmer). Based on the measured luminescence values, the concentration of compounds causing cell death was calculated to determine the GI50 value. […]

Molecule: O=C1COCCOc2ccc(cc2)-c2ccc3cnc(nn23)Nc2cnn(c2)CCCN1
GI50: < 1 µM
--
Molecule: O=C1CCCCCCOc2ccc(cc2)-c2ccc3cnc(nn23)Nc2cnn(c2)C2CCN(CCCN1)CC2
GI50: < 1 µM
--
Molecule: CS(=O)(=O)Nc1cccc(-c2ccc3cnc(Nc4ccc(N5CCN(CCCCCCCOc6cccc7c6C(=O)N(C6CCC(=O)NC6=O)C7=O)CC5)cc4)nn23)c1 (centres unmarked)
GI50: < 1 µM
--
Molecule: O=C1CCCCCCOc2ccc(cc2F)-c2ccc3cnc(nn23)Nc2ccc(cc2)OCCCN1
GI50: ≥ 10 µM
--
Molecule: O=C1CCCCOc2ccc(cc2)-c2ccc3cnc(nn23)Nc2cnn(c2)C2CCN1CC2
GI50: 1 to 10 µM
--
Molecule: CC(=O)N1CCCn2cc(cn2)Nc2ncc3ccc(n3n2)-c2ccc(cc2)OCC1
GI50: < 1 µM
--
Molecule: CS(=O)(=O)Nc1cccc(-c2ccc3cnc(Nc4ccc(N5CCN(CCCCCOc6cccc7c6C(=O)N(C6CCC(=O)NC6=O)C7=O)CC5)cc4)nn23)c1 (centres unmarked)
GI50: ≥ 10 µM
--
Molecule: COc1cccc(NC(=O)N2CCCn3cc(cn3)Nc3ncc4ccc(n4n3)-c3ccc(cc3)OCC2)c1
GI50: 1 to 10 µM
--
Molecule: c1cc2ccc1Nc1ncc3ccc(n3n1)-c1ccc(cc1)OCCNCCCO2
GI50: < 1 µM
--
Molecule: O=C1CCCCCCOc2ccc(cc2)-c2ccc3cnc(nn23)Nc2ccc(cc2)N2CCN1CC2
GI50: ≥ 10 µM
--
Molecule: O=C1CCCCOc2ccc(cc2)-c2ccc3cnc(nn23)Nc2cnn(c2)CCCN1
GI50: < 1 µM
